system: BT-549 breast; experiment: NCI-60 one-dose screen, 48 h; conditions: 10 µM unless noted
This is part of a sample that, as a whole, favours compounds with a hit. Of some 83,000 tested, about 20% had one in any assay. The source made the active and inactive calls. How the source made its calls: active means growth percent below 10; inactive means the rest.
Response enum: y for active, n for inactive

# lookup: test call for O=C(Cc1ccc(F)cc1)c1ccccc1 n

Now consider COc1ccc(NC(=O)Nc2ccccc2CNc2nc(Nc3ccc(OCCN4CCCC4)cc3)ncc2Cl)cc1 and answer again. n

Now consider O=C(N/N=C/c1ccc(O)cc1O)c1cccc(Nc2ccnc(C(F)(F)F)c2)c1 and answer again. n

Now consider Cn1cc(-c2nonc2-c2cn(C)c3ccc(Br)cc23)c2ccccc21 and answer again. n
